- assay-target: T1, cyno MAdCAM (cynomolgus)
- T1 construct: also called cynomolgus MAdCAM
- test-details: BLI (Octet), binder on anti-human Fc tips
recorded-endpoint: pKd
Numbers only, as −log10 of the molar value.

{"columns": ["binder", "pKd"],
 "data": [
  ["MIAB125 (antibody, V domains shown, tested with human Fc) VH: EVQLLESGGGLVQPGGSLRLSCAASGFTFSNYAISWVRQAPGKGLEWSDISGSGGTTYYADSVKGRFTISRDNSKNTLYLQMNSLRAEDTAVYYCARERVDWNSYFDLWGQGTLVTVSS VL: EIVMTQSPATLSVSPGERATLSCRASQGISNSYLAWYQQKPGQAPRLLIYGASTRATGIPARFSGSGSGTEFTLTISSLQSEDFAVYYCQQYYTYPPTFGQGTKVEIK", 9.05],
  ["MIAB12 (antibody, V domains shown, tested with human Fc) VH: EVQLLESGGGLVQPGGSLRLSCAASGFTFDDYAMHWVRQAPGKGLEWVASITSSSAFIDYADSVKGRFTISRDNSKNTLYLQMNSLRAEDTAVYYCARERVDWNSYFDLWGQGTLVTVSS VL: EIVMTQSPATLSVSPGERATLSCRACPGISNSYLAWYQQKPGQAPRLLIYGASTRATGIPARFSGSGSGTEFTLTISSLQSEDFAVYYCQQYYTYPPTFGQGTKVEIK", 7.71],
  ["MIAB122 (antibody, V domains shown, tested with human Fc) VH: EVQLLESGGGLVQPGGSLRLSCAASGFIFDDYAMHWVRQAPGKGLEWVASITSSSAFIDYADSVKGRFTISRDNSKNTLYLQMNSLRAEDTAVYYCARERVDWFSYFDLWGQGTLVTVSS VL: EIVMTQSPATLSVSPGERATLSCRACPSVSNNYLVWYQQKPGQAPRLLIYDASTRATGIPARFSGSGSGTEFTLTISSLQSEDFAVYYCQQYSHWPPTFGQGTKVEIK", 7.16]
]}

Would you mind listing pKd for each of the following binders?
1. MIAB121 (antibody, V domains shown, tested with human Fc) VH: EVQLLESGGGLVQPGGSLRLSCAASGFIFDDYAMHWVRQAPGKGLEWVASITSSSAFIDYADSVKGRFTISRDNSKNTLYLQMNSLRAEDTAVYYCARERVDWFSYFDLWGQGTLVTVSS VL: EIVMTQSPATLSVSPGERATLSCRACPSVSNNLVWYQQKPGQAPRLLIYDASTRATGIPARFSGSGSGTEFTLTISSLQSEDFAVYYCQQYSHWPPTFGQGTKVEIK
2. MIAB1 (antibody, V domains shown, tested with human Fc) VH: EVQLLESGGGLVQPGGSLRLSCAASGFTFDDYAMHWVRQAPGKGLEWVASITSSSAFIDYADSVKGRFTISRDNSKNTLYLQMNSLRAEDTAVYYCAREPVDWNSYFDLWGQGTLVTVSS VL: EIVMTQSPATLSVSPGERATLSCRASQGISNSYLAWYQQKPGQAPRLLIYGASTRATGIPARFSGSGSGTEFTLTISSLQSEDFAVYYCQQYYTYPPTFGQGTKVEIK
3. MIAB205 (antibody, V domains shown, tested with human Fc) VH: EVQLLESGGGLVQPGGSLRLSCAASGFTFDDYAMHWVRQAPGKGLEWVASITSSSAFIDYADSVKGRFTISRDNSKNTLYLQMNSLRAEDTAVYYCARERVDWFSYFDLWGQGTLVTVSS VL: EIVMTQSPATLSVSPGERATLSCRASQSVYSNLAWYQQKPGQAPRLLIYRASTRATGIPARFSGSGSGTEFTLTISSLQSEDFAVYYCQQYHIWPPTFGQGTKVEIK
4. MIAB26 (antibody, V domains shown, tested with human Fc) VH: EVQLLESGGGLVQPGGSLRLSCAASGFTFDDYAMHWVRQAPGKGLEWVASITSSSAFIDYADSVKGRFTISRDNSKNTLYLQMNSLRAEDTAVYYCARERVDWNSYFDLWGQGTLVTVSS VL: EIVMTQSPATLSVSPGERATLSCRASQSVYSNLAWYQQKPGQAPRLLIYRASTRATGIPARFSGSGSGTEFTLTISSLQSEDFAVYYCQQYHIWPPTFGQGTKVEIK
5. MIAB2 (antibody, V domains shown, tested with human Fc) VH: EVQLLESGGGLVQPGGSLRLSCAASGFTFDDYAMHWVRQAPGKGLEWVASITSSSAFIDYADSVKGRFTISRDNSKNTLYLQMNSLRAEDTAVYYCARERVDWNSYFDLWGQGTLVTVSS VL: EIVMTQSPATLSVSPGERATLSCRASQGISNSYLAWYQQKPGQAPRLLIYGASTRATGIPARFSGSGSGTEFTLTISSLQSEDFAVYYCQQYYTYPPTFGQGTKVEIK
6. MIAB13 (antibody, V domains shown, tested with human Fc) VH: EVQLLESGGGLVQPGGSLRLSCAASGFTFDDYAMHWVRQAPGKGLEWVASITSSSAFIDYADSVKGRFTISRDNSKNTLYLQMNSLRAEDTAVYYCARERVLWNSYFDLWGQGTLVTVSS VL: EIVMTQSPATLSVSPGERATLSCRASQNVNNNLAWYQQKPGQAPRLLIYDATTRATGIPARFSGSGSGTEFTLTISSLQSEDFAVYYCQQYYHWPQTFGQGTKVEIK
7. MIAB206 (antibody, V domains shown, tested with human Fc) VH: EVQLLESGGGLVQPGGSLRLSCAASGFTFDDYAMHWVRQAPGKGLEWVASITSSSAFIDYADSVKGRFTISRDNSKNTLYLQMNSLRAEDTAVYYCARERVDWYSYFDLWGQGTLVTVSS VL: EIVMTQSPATLSVSPGERATLSCRASQSVYSNLAWYQQKPGQAPRLLIYRASTRATGIPARFSGSGSGTEFTLTISSLQSEDFAVYYCQQYHIWPPTFGQGTKVEIK

Ans:
1. 7.04
2. 7.58
3. 6.93
4. 7.11
5. 7.73
6. 7.48
7. 7.05
